# testedTarget: Short transient receptor potential channel 4 (Mus musculus) (UniProt Q9QUQ5)
# Sequence (Q9QUQ5 whole entry, looked up): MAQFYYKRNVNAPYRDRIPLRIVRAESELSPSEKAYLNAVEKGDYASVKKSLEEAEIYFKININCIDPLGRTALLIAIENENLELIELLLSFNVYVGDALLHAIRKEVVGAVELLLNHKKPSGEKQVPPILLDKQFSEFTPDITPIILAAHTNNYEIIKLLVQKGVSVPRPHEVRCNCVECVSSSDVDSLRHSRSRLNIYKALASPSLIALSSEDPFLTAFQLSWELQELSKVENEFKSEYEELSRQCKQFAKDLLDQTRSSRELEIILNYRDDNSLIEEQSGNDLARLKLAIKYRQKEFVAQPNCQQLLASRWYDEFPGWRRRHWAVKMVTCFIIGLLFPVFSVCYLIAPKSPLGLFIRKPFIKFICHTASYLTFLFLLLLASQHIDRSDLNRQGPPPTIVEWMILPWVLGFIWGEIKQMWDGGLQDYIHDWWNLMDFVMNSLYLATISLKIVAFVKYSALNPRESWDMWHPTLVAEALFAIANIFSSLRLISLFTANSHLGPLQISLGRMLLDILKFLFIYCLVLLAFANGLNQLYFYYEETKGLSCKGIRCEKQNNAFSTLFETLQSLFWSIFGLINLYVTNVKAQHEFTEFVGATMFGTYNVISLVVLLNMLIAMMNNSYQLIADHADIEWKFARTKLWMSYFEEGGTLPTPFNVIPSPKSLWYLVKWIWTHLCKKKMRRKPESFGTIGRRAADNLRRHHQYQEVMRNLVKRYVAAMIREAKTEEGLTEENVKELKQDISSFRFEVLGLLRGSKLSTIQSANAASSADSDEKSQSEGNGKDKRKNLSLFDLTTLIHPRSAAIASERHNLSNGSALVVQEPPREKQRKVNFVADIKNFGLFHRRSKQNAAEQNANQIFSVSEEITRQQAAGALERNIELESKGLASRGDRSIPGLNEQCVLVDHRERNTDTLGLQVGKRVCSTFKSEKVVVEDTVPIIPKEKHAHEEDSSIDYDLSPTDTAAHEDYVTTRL
# methodSummary: blockers of DAMGO-evoked TRPC4 calcium flux – cell-based, second round, Fluo4, HEK293 TRPC4beta/mu-opioid, 1 µM, confirmation (AID 2637)
# conditionLabel: at 1 µM
The source made the active and inactive calls.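 The calls were made as follows: active = calcium signal ratio cut to more than 3 SD under the fully stimulated control mean yet still positive, in both repeats and the primary screen; inactive = the rest.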
Choose the fitting class; nothing outside active, inactive is accepted.

Consider the following illustrative entries.
COc1ncnc2sc3c(c12)CCCC3 : inactive
OC1(c2cccs2)CN(c2ccc(Cl)cc2)C2=[N+]1CCCC2 (stereo unspecified) : inactive
Cc1oc(-c2cccc(F)c2)nc1CN(Cc1ccccc1)C[C@@H]1CCC(=O)N1 : inactive
O=C(CCCSc1nc2ccccc2[nH]1)NCc1ccccc1Cl : active

Request: Please indicate how the test categorized Cc1ccc(O)c(Sc2cc(C)ccc2O)c1 .
Result: inactive

Request: Same question, COc1ccccc1OCC(=O)Nc1ccc(Cl)cc1 this time
Result: active

----------
# System: TRPC4 beta (transient receptor potential cation channel C4), mouse
# methodSummary: TRPC4 cation channel opening, retest – cell-based, Fluo4 calcium, HEK293 TRPC4beta/mu-opioid, duplicates, 10 µM, confirmation (AID 2426)
# conditionLabel: Fluo4 calcium fluorescence, at 10 µM
The source made the active and inactive calls.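 The calls were made as follows: active = fluorescence ratio normalized to control raised more than 50% in primary screen plus both repeat runs; inactive = the rest.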
Choose the fitting class; nothing outside active, inactive is accepted.

Request: Please indicate how the test categorized Cc1oc(-c2ccc(Cl)cc2)nc1CS(=O)CC(=O)NCCCN(C)C1CCCCC1 (centres undefined) .
Result: inactive

Request: Same question, CCNc1nc(NC(C)(C)C)nc(N2CCCC2)n1 this time
Result: inactive

----------
# testedTarget: Short transient receptor potential channel 6 (Mus musculus)
# methodSummary: positive modulators of mouse TRPC6 channel – HEK293 cells, membrane potential dye, duplicate, selectivity assay for TRPC4 potentiator project, confirmation (AID 434952)
# conditionLabel: HEK293 TRPC6, membrane potential dye fluorescence, at 10 µM, maximal acetylcholine added after compound; active compounds read high
The source made the active and inactive calls.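 How the source made its calls: active means compound raising the membrane signal above positive-control mean plus 3 SD in both repeats, and a primary screen hit; inactive means the rest.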
measuredProperty: potentiation, percent of control

Record excerpt, results attached:
Cc1ccc(OCc2cc(C(=O)N(C)CCc3nc4ccccc4[nH]3)no2)cc1C : inactive
O=C(c1ccccc1)c1coc2ccc(O)c(CN3CCOCC3)c12 : inactive
Cc1cc(N2CCC(C)CC2)nc2cccc(O)c12 : inactive
O=C(CN1CCN(Cc2ccccc2Cl)CC1)N=Nc1c(O)[nH]c2ccccc12 : inactive
Cc1ccc(NC(=O)CNCC(c2ccccc2)N(C)C)cc1F (stereo not given) : inactive
CCCN(CCC)CCNC(=O)CCC(=O)Nc1ccc2nc(N3CCOCC3)cc(C)c2c1 : inactive
CCN(Cc1ccccc1)S(=O)(=O)c1ccc(C(=O)N(CCCN(C)C)c2nc3c(F)cccc3s2)cc1 : inactive
COC(=O)c1c(NC(=O)CSc2ncn[nH]2)sc(C)c1C : inactive

Request: Reported potentiation, percent of control for C/C(CC(=O)NCc1ccc(Cl)cc1)=N\NC(=O)COc1ccc(C)cc1Br : what is it?
Result: inactive

Request: Same question, O=C(O)c1ccc(N2CCN(C(c3ccccc3)c3ccccc3)CC2)c([N+](=O)[O-])c1 this time
Result: inactive

----------
# methodSummary: nonspecific calcium rise without TRPC4 – cell-based, HEK293 mu-opioid receptor line, counter-screen for TRPC4 activator project, confirmation (AID 449723);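 also: counter screen cells carry the mu-opioid receptor alone and lack TRPC4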
# conditionLabel: HEK293 mu-opioid cells, Fluo-4 calcium fluorescence, at 10 µM; active compounds read high
The source made the active and inactive calls.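 The calls were made as follows: active = hit in primary screen, with calcium signal over 5 SD above buffer well mean in both duplicates; inactive = the rest.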
measuredProperty: activation

Record excerpt, results attached:
Cn1c(=O)c2c(nc(CN3CCc4ccccc4C3)n2Cc2ccccc2)n(C)c1=O : inactive
O=[N+]([O-])c1c(Nc2cccc(O)c2)cc(Cl)c2nonc12 : inactive
C/C=C(/C)C(=O)O[C@@H]1c2cc(OC)c(OC)c(OC)c2-c2c(cc3c(c2OC)OCO3)C[C@H](C)[C@]1(C)O : inactive
CCC(C)NC(C(=O)Nc1ccc(Cl)c([N+](=O)[O-])c1)c1ccccc1 (stereo not given) : inactive

Turning now to a further record.
Request: Reported activation for CCOc1cc(CNCCCN2CCOCC2)cc(Br)c1OCC(=O)Nc1cccc(C(F)(F)F)c1 : what is it?
Result: inactive

----------
# testedTarget: Short transient receptor potential channel 4 (Mus musculus)
# methodSummary: blockers of DAMGO-evoked TRPC4 calcium flux – cell-based, Fluo4, HEK293 TRPC4beta/mu-opioid, confirmation (AID 2636)
# conditionLabel: at 10 µM
Active and inactive are the calls of the source.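 How the source made its calls: active means calcium signal cut by more than 3 SD below the full-agonist control yet still positive, in both repeats and the earlier primary screen; inactive means the rest.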
Choose the fitting class; nothing outside 1.0 for active, 0.0 for inactive is accepted.

Consider the following illustrative entries.
Cc1csc2c(N3CCN(C(=O)Nc4ccc(OC(F)(F)F)cc4)CC3)ncnc12 : 0.0
C/C(=N/Nc1ccnc2cc(Cl)ccc12)c1ccc(N)cc1 : 0.0
CN(C)CCOc1ccc2ccccc2c1 : 0.0
COc1cccc(OCCOCCNCCO)c1 : 0.0
CCCn1nc(C(=O)NC2CCCc3ccccc32)c2ccccc2c1=O (stereo unspecified) : 0.0

Okay, now this compound:
Request: Please indicate how the test categorized Cc1[nH]nc(-c2ccc(O)cc2O)c1-c1nc2ccccc2s1 .
Result: 0.0

----------
# testedTarget: Short transient receptor potential channel 4 (Mus musculus)
# methodSummary: blockers of DAMGO-evoked TRPC4 calcium flux – cell-based, second round, Fluo4, HEK293 TRPC4beta/mu-opioid, 1 µM, confirmation (AID 2637)
# conditionLabel: at 1 µM
Calls of active or inactive are those of the source.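 How the source made its calls: active means calcium signal ratio cut to more than 3 SD under the fully stimulated control mean yet still positive, in both repeats and the primary screen; inactive means the rest.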
Choose the fitting class; nothing outside active, inactive is accepted.

Consider the following illustrative entries.
CC(C)CN(C(=O)COC(=O)CCC(=O)c1ccc(Cl)cc1)c1c(N)n(Cc2ccccc2)c(=O)[nH]c1=O : inactive
CCOc1cc(CNCCCN2CCOCC2)cc(Br)c1OCc1ccccc1Cl : inactive
CC(C)n1c(SCC(=O)N2c3ccccc3Sc3ccccc32)nc2c1c(=O)n(C)c(=O)n2C : inactive

Request: Please indicate how the test categorized CC(=O)N1CCN(c2ccccc2NC(=O)c2ccc3ccccc3c2)CC1 .
Result: active

Request: Same question, CCN(CC)CCSc1nnc2c3ccccc3n(Cc3ccccc3)c2n1 this time
Result: inactive

Request: Same question, O=C(NCc1ccccc1)c1ccc(S(=O)(=O)Nc2cccc(C(F)(F)F)c2)cc1 this time
Result: inactive

Request: Same question, CCOC(=O)c1ccc(N=C2C(=S)N(c3ccc(C(=O)OCC)cc3)C(=N)N2/N=C/c2ccccc2)cc1 this time
Result: inactive

Request: Same question, O/N=C/c1cn(-c2ccccc2)nc1-c1ccc2c(c1)OCCO2 this time
Result: inactive

Request: Same question, CC(C(=O)c1ccc(Br)cc1)[n+]1cccc(NC(=O)c2ccccc2)c1 (stereo not given) this time
Result: inactive

Request: Same question, CCOC(=O)C1(Cc2cccc(F)c2)CCN(Cc2cnn(CC)c2)CC1 this time
Result: inactive

----------
# Test system: TRPC4 (mouse), co-expressed with 5HT1a in HEK293
# methodSummary: enhancement of serotonin-evoked TRPC4 response – cell-based, second counter screen, HEK293 TRPC4/5HT1a, Fluo-4, counter-screen for TRPC4 potentiator project, confirmation (AID 434979)
# conditionLabel: Fluo-4 calcium flux, at 10 µM, serotonin added at its EC20 dose
The source made the active and inactive calls.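 The calls were made as follows: active = signal rise over 3 SD above mean of control wells given weak agonist, in both repeats and first screen; inactive = the rest.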
Choose the fitting class; nothing outside active, inactive is accepted.

CC(=O)Nc1ccc(CN2CCCC(CO)(Cc3ccccc3C)C2)cc1 (stereo not given) : inactive
CC(C)CCn1c(N2CCN(c3cccc(Cl)c3)CC2)nc2c1c(=O)[nH]c(=O)n2C : inactive
Cc1cc(C)cc(N/C(N)=N/c2nc(C)cc(C)n2)c1 : inactive
O=C(c1cccc(C(=O)N2CCN(c3ccccc3)CC2)c1)N1CCN(c2ccccc2)CC1 : inactive
Cn1c(/N=C/c2ccccc2[N+](=O)[O-])nc2ccccc21 : active
Cc1ccc(S(=O)(=O)/N=C2/NC(=O)/C(=C\c3cc(Br)cc(Br)c3O)S2)cc1 : active

Request: Please indicate how the test categorized CNc1oc(-c2ccccc2Cl)nc1P(=O)(c1ccccc1)c1ccccc1 .
Result: inactive

Request: Same question, COc1cc(/C=C/C(=O)OCC(=O)Nc2c(C)n(C)n(-c3ccccc3)c2=O)ccc1OCC#N this time
Result: inactive

Request: Same question, CC(/C=C1\SC(=S)N(C(C(=O)O)C(C)C)C1=O)=C\c1ccccc1 (stereo not given) this time
Result: inactive

Request: Same question, COc1ncnc2sc3c(c12)CCCC3 this time
Result: inactive

----------
# testedTarget: Potassium voltage-gated channel subfamily KQT member 1 (Homo sapiens) (UniProt P51787)
# Sequence (P51787 whole entry, looked up): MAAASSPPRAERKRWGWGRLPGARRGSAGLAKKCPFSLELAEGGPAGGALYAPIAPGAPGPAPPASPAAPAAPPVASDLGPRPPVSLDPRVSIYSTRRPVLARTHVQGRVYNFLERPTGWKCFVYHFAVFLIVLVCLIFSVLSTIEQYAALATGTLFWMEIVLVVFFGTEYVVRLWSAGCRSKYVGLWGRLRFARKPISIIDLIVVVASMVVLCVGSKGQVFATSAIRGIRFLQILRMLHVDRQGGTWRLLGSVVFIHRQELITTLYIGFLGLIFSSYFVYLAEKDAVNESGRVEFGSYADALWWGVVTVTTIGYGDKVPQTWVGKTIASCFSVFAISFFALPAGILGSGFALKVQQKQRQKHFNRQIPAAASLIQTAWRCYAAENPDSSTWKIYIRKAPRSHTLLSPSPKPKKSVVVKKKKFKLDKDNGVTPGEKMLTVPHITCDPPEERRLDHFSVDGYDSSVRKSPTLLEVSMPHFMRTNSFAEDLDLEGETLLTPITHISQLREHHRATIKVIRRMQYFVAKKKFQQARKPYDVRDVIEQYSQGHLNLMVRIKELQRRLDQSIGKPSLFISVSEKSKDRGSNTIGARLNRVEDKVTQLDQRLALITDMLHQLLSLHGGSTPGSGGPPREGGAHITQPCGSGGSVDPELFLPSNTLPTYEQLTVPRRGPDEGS
# methodSummary: enhancement of KCNQ1 channel thallium flux – FluxOR thallium flux, CHO cells, duplicates, confirmation (AID 493007)
# conditionLabel: KCNQ1 cell line, FluxOR thallium flux fluorescence, at 10 µM, % of reference activator effect, buffer zero
Activity calls are given as the source filed them.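 Rule for the calls: active = potentiation averaged over duplicate wells exceeding buffer-only control mean by more than 3 SD; inactive = the rest.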
Choose the fitting class; nothing outside T (active), F (inactive) is accepted.

Consider the following illustrative entries.
Cc1cc(C)c2c(=O)n(CC(=O)Nc3cccc(Cl)c3C)sc2n1 : F
COc1ccc(NS(=O)(=O)c2ccc3ccccc3c2)c2ncccc12 : T
Cc1ccc(/C=C/C(=O)c2ccc(O)cc2)cc1 : F

Request: Please indicate how the test categorized Cc1ccc(OCC(=O)NNC(=S)NC(=O)c2ccc(Br)o2)c(C)c1 .
Result: T

Request: Same question, CCn1c2ccccc2c2cc(NC(=O)CNC)ccc21 this time
Result: F

Request: Same question, Fc1cc(F)c2nc(Nc3nc4c(F)cccc4s3)sc2c1 this time
Result: T

Request: Same question, CCc1ccc(NC(=O)C(=O)NNC(=O)c2cccs2)cc1 this time
Result: T

Request: Same question, Cc1[nH][nH]c(=O)c1C(c1ccc(-c2ccc(Cl)cc2)o1)c1c(C)[nH][nH]c1=O this time
Result: T

Request: Same question, CCOC(=O)c1c(NC(=S)NC)sc2c1CCCC2 this time
Result: T

Request: Same question, Cc1nc2c3cc(Cl)ccc3n(CCN3CCCCC3)c2s1 this time
Result: F

Request: Same question, Cc1cc(C)cc(N/C(N)=N/c2nc(C)cc(C)n2)c1 this time
Result: F
